# System: MALME-3M melanoma
# protocol-details: NCI tumour cell line growth inhibition, 48 h

{"columns": ["molecule", "system-name", "GI50"],
 "data": [
  ["Cc1csc(/C=N/NC(=O)c2nnn(-c3ccnc4c(C(F)(F)F)cccc34)c2C)c1", "MALME-3M melanoma", "26.9 µM"],
  ["O=C(COc1ccc(/C=C2\\Oc3ccccc3C2=O)cc1)Nc1nccs1", "MALME-3M melanoma", "> 100 µM"],
  ["CC(=O)Nc1ccc(-c2c3nc(c(-c4cc5ccccc5[n+](C)c4)c4ccc([nH]4)c(-c4ccc(NC(C)=O)cc4)c4nc(c(-c5cc6ccccc6[n+](C)c5)c5ccc2[nH]5)C=C4)C=C3)cc1", "MALME-3M melanoma", "16.9 µM"],
  ["CN(Cc1cnc(N)nc1N)c1ccc(C(=O)O)cc1", "MALME-3M melanoma", "> 100 µM"],
  ["O=C(/C=C/c1ccccc1)c1c[nH]c2ccccc2c1=O", "MALME-3M melanoma", "8.81 µM"],
  ["CCN(CC)C(=O)CC1=C(C)/C(=C/c2[nH]c(-c3ccc[nH]3)cc2OC)N=C1C", "MALME-3M melanoma", "0.982 µM"],
  ["O=S(=O)(Nc1cc(Br)c(O)c2ccccc12)c1ccc(F)cc1", "MALME-3M melanoma", "2.03 µM"],
  ["C=CCn1c(=O)c2cnc(Nc3ccc(N4CCN(C)CC4)cc3)nc2n1-c1ccc2c(n1)[C@@](O)(CC)CC2", "MALME-3M melanoma", "0.576 µM"],
  ["[C-]#[O+].[Cl][Sn]([Cl])[Cl].[Cl][Sn]([Cl])[Cl].[Pt].c1ccc([PH+](c2ccccc2)c2ccccc2)cc1.c1ccc([PH+](c2ccccc2)c2ccccc2)cc1", "MALME-3M melanoma", "60 µM"],
  ["COc1ccc(Cl)cc1Nc1nc(C(F)(F)F)ccc1C(=O)N/N=C/c1ccc([N+](=O)[O-])cc1", "MALME-3M melanoma", "2.3 µM"],
  ["Oc1c(C(Nc2cccc3ccccc23)c2ccccc2)ccc2cccnc12 (stereo unspecified)", "MALME-3M melanoma", "5.17 µM"]
]}

###

# Test system: SK-MEL-5 melanoma
# protocol-details: NCI tumour cell line growth inhibition, 48 h; in the data active = GI50 below about 0.43 µM; inactive = the rest
Labels: class 1 for active, class 0 for inactive

{"columns": ["molecule", "system-name", "class"],
 "data": [
  ["O=C(/C=C1\\C(=O)N(Cc2ccc([N+](=O)[O-])cc2)c2ccccc21)c1ccc(OCCN2CCCCC2)cc1", "SK-MEL-5 melanoma", "class 0"],
  ["NC(=O)c1cc(-c2ccncc2)cc(-c2ccccc2)c1N", "SK-MEL-5 melanoma", "class 0"],
  ["CC(=O)Nc1ccc(-c2c3nc(c(-c4cc5ccccc5[n+](C)c4)c4ccc([nH]4)c(-c4ccc(NC(C)=O)cc4)c4nc(c(-c5cc6ccccc6[n+](C)c5)c5ccc2[nH]5)C=C4)C=C3)cc1", "SK-MEL-5 melanoma", "class 0"],
  ["CN(C)c1ccc2c(c1)CN1C(=O)c3ccccc3C1=N2", "SK-MEL-5 melanoma", "class 0"],
  ["COc1ccc(Cl)cc1Nc1nc(C(F)(F)F)ccc1C(=O)N/N=C/c1ccc([N+](=O)[O-])cc1", "SK-MEL-5 melanoma", "class 0"],
  ["Cc1onc(-c2c(F)cccc2Cl)c1-c1ncc(-c2ccc(Cl)cc2)o1", "SK-MEL-5 melanoma", "class 0"],
  ["CCOC(=O)C1=C(C)NC2SC(=O)/C(=C\\c3ccccc3Cl)N2C1c1ccccc1 (configuration not stated)", "SK-MEL-5 melanoma", "class 0"],
  ["COc1cc2c(c(OC)c1OC)C(=O)CC(c1cccc(NC(=O)c3ccc(Br)cc3)c1)O2 (configuration not stated)", "SK-MEL-5 melanoma", "class 0"],
  ["C=CCn1c(=O)c2cnc(Nc3ccc(N4CCN(C)CC4)cc3)nc2n1-c1ccc2c(n1)[C@@](O)(CC)CC2", "SK-MEL-5 melanoma", "class 1"],
  ["COc1cccc(C(=O)Nc2ccc(CN3CCc4nc5cc(OC)c(OC)cc5cc43)cc2)c1", "SK-MEL-5 melanoma", "class 0"],
  ["COc1cc(-c2n/c(=C\\c3c(O)[nH]c4ccc(Cl)cc34)cc3c2=Nc2ccccc2-3)cc(OC)c1OC", "SK-MEL-5 melanoma", "class 0"],
  ["CC[C@@]1(OC(=O)CN)C(=O)OCc2c1cc1n(c2=O)Cc2cc3cc4c(cc3nc2-1)OCO4", "SK-MEL-5 melanoma", "class 1"]
]}

###

# Tested on: LOX IMVI melanoma
# protocol-details: NCI tumour cell line growth inhibition, 48 h

{"columns": ["compound", "system-name", "TGI"],
 "data": [
  ["Cc1cc(C)nc(NS(=O)(=O)c2ccc(NN=c3c4ccccc4n(C)c4ccccc34)cc2)n1", "LOX IMVI melanoma", "96.7 µM"],
  ["CC(C)(C)N/N=C(\\Cc1occc(=O)c1O)C(=O)Nc1ccc([N+](=O)[O-])cc1[N+](=O)[O-]", "LOX IMVI melanoma", "> 100 µM"],
  ["COC(=O)CCC(C)[C@H]1CCC2C3C(C[C@H](OC(C)=O)[C@@]21C)[C@@]1(C)CCC2(C[C@H]1C[C@H]3OC(C)=O)OOC1(CCC(C)CC1)OO2 (stereo partly drawn)", "LOX IMVI melanoma", "> 100 µM"],
  ["C=C[C@@]1(C)CCC2(O)C(CCC3C2(C)CCC[C@@]3(C)COC(=O)CC(=O)OC)C1 (stereo partly drawn)", "LOX IMVI melanoma", "31.1 µM"],
  ["C[C@@H](C1CCC2C3C(=CC(=O)[C@@]21C)[C@H](C)[C@]1(CCC(=O)O1)C1OC31)[C@H]1C[C@]2(C)O[C@@](C)(O1)OC2(C)C (stereo partly drawn)", "LOX IMVI melanoma", "> 100 µM"],
  ["COc1ccc(C[n+]2c3ccccc3n3c4ccc(N)cc4ccc32)c(OC)c1OC", "LOX IMVI melanoma", "36.3 µM"],
  ["CC1C2=C(CC(C)(C)CC2=O)NC2=C1C(=O)CC(C)(C)C2", "LOX IMVI melanoma", "> 100 µM"],
  ["CC1CC(=O)Nc2cc(Cl)ccc2N1C(=O)C1CC1 (stereo not drawn)", "LOX IMVI melanoma", "> 100 µM"]
]}

###

Listed here are molecules together with their documented TGI.
# Tested on: OVCAR-3 ovarian
# protocol-details: NCI tumour cell line growth inhibition, 48 h
readout-name: TGI

{"columns": ["molecule", "readout-name", "experimental-result"],
 "data": [
  ["CC(C)(C)OC(=O)NC1CC=CCC1NC(=O)OC(C)(C)C (centres undefined)", "TGI", "> 100 µM"],
  ["CC1=CC[C@@H]2C(C)(C)C(=O)CC[C@@]2(C)[C@@H]1COc1ccc2ccc(=O)oc2c1", "TGI", "56.9 µM"],
  ["CN1CCN(CCCOc2cccc3nc(Nc4ccc(Cl)c(F)c4)ccc23)CC1", "TGI", "3.29 µM"],
  ["CCN(CC)CCNc1ccc2ncn3c4c(OC)ccc(OC)c4c(=O)c1c23", "TGI", "> 100 µM"],
  ["COc1ccc(CN2C(=O)C(Cc3cc(OC)c(OC)c(C)c3OC)NC(=O)/C2=C/c2cc(OC)c(OC)c(C)c2OC)cc1 (centres undefined)", "TGI", "82.2 µM"],
  ["CC12CCC([C@H](N3CCOCC3)/C1=N\\OCCN1CCCC1)C2(C)C (some centres undefined)", "TGI", "> 100 µM"],
  ["O=[N+]([O-])c1ccc(N=Nc2c(O)ccc3cc(S(=O)(=O)O)ccc23)cc1", "TGI", "> 100 µM"],
  ["N=CCCN(CCC=N)c1ccc(/C=C2\\CN(NC(=O)c3ccc(Cl)cc3)C(c3ccccc3)=N2)cc1", "TGI", "> 100 µM"],
  ["Cn1cc(C2=C(c3c4n(c5ccccc35)CCCC4)C(=O)NC2=O)c2ccccc21", "TGI", "> 21.6 µM"]
]}

###

# Tested on: SK-OV-3 ovarian
# protocol-details: NCI tumour cell line growth inhibition, 48 h

{"columns": ["compound", "system-name", "TGI"],
 "data": [
  ["Cc1cccc2[nH]c3cc(O)cc(O)c3c(=O)c12", "SK-OV-3 ovarian", "> 10 µM"],
  ["CC(C)(C)[Si](C)(C)OCC1CCC(n2cnc3c(=O)[nH]cnc32)O1 (stereo not given)", "SK-OV-3 ovarian", "> 100 µM"],
  ["COc1ccc(OC)c([N+](=O)[O-])c1-c1nc2sccn2c1/C=N/N=C(N)N", "SK-OV-3 ovarian", "> 100 µM"],
  ["Cc1cc(=O)n(-c2ccccc2)c(=O)o1", "SK-OV-3 ovarian", "> 100 µM"],
  ["COC(=O)CCC1(C)C2CCC1(C)/C(=N/O)C2 (stereo not given)", "SK-OV-3 ovarian", "> 100 µM"],
  ["O=C(C/C(=N\\NC(=O)C[n+]1ccccc1)C(=O)Nc1nc2ccc([N+](=O)[O-])cc2s1)CC(c1ccccc1)c1c(O)c2ccccc2oc1=O (stereo not given)", "SK-OV-3 ovarian", "> 100 µM"],
  ["CC(C)N(C(=O)C12C3C4C5C3C1(C(=O)N(C(C)C)C(C)C)C5(C#N)C42)C(C)C (stereo not given)", "SK-OV-3 ovarian", "> 100 µM"],
  ["O=C1c2ccccc2NC(c2cc(Cl)cc(Cl)c2O)N1CCc1ccccn1 (stereo not given)", "SK-OV-3 ovarian", "> 100 µM"],
  ["N#CC(C#N)=Cc1c(-c2ccccc2)[nH]c2ccccc12", "SK-OV-3 ovarian", "> 80.7 µM"],
  ["C=C1C(=O)O[C@H]2[C@H]1CC/C(Cn1cc(CNCCc3c[nH]c4ccc(Cl)cc34)nn1)=C\\CC[C@@]1(C)O[C@@H]21", "SK-OV-3 ovarian", "> 100 µM"]
]}
